Test system: CCRIS mutagenicity, Ames/micronucleus/aberration tests
Assay: CCRIS mutagenicity studies
Details: Test System: AMES SALMONELLA TYPHIMURIUM; Strain/Indicator: TA100; Metabolic Activation: RAT, LIVER, S-9, AROCLOR 1254; Method: STANDARD PLATE
Activity calls are given as the source filed them. How the calls were made is not given here.
measured.property: mutagenic call

CN(CCO)C(=O)Nc1ccccc1 | inactive; negative
CC(=O)Nc1ccc(C(=O)CCl)cc1 | inactive; negative
OCC(Br)CBr (stereo not drawn) | active; positive
Cc1cc2nc3ccc(=[N+](C)C)cc-3sc2cc1N | active; positive
c1cc2c3c(c1)ccc1cccc(c13)C2 | inactive; negative

# query: mutagenic call of entry "Oc1cccc2cc3cccc(O)c3c(O)c12" inactive; negative

Note, next up: "Cc1cc2c(c3ccc4ccccc4c13)CCC2" inactive; negative

Next up: "O=C(O)c1cc(I)cc2cccnc12" inactive; negative

---

System: CCRIS mutagenicity, Ames/micronucleus/aberration tests
Experiment: CCRIS mutagenicity studies
Conditions: Test System: AMES SALMONELLA TYPHIMURIUM; Strain/Indicator: TA1535; Metabolic Activation: RAT, LIVER, S-9, AROCLOR 1254; Method: PREINCUBATION
Active and inactive are the calls of the source. The rule behind the calls is not given here. Where a SMILES comes first, the peptide text is derived from it. [ ]: non-standard residue; d: D form. ξ: configuration not given here. Trp(1-OMe) = COn1cc(C[C@H](N)C(=O)O)c2ccccc21; Asu = N[C@@H](CCCCCC(=O)O)C(=O)O; Ile(3ξ) = CCC(C)[C@H](N)C(=O)O; dPip = O=C(O)[C@H]1CCCCN1
Please answer using one outcome listed in active, inactive

Sample answers from the record:
Nc1nc(=O)n([C@H]2C[C@H](O)[C@@H](CO)O2)cc1CCCl | inactive
c1ccc2occc2c1 | inactive
c1ccc(Nc2ccc3ccccc3c2)cc1 | inactive
CCC(C)[C@@H]1NC(=O)[C@H](Cc2cn(OC)c3ccccc23)NC(=O)[C@H](CCCCCC(=O)OC)NC(=O)[C@H]2CCCCN2C1=O (stereo partly drawn) (cyclo([Asu](OMe)[Trp(1-OMe)][Ile(3ξ)][dPip])) | inactive
Oc1c(Cl)c(Cl)c(Cl)c(Cl)c1Cl | inactive
Brc1ccc(-c2ccccc2)cc1 | inactive

How was "N[C@@H](CCC(=O)NNc1ccc(CO)cc1)C(=O)O" classified in this test? inactive

Item: "Oc1cccc(O)c1O" inactive

// repeat for "CC(=O)CN(CC(C)=O)N=O" and report active

Also need "CC(=O)NC[C@@H](O)COc1cccc2ccccc12" , thanks. inactive

# iterate: "c1ccc(Oc2ccccc2)cc1" inactive

Also need "O=C1CCC(=O)O1" , thanks. inactive

Repeat with "Brc1ccccc1-c1ccccc1" inactive

---

Test system: CCRIS mutagenicity, Ames/micronucleus/aberration tests
Test: CCRIS mutagenicity studies
Settings: Test System: AMES SALMONELLA TYPHIMURIUM; Strain/Indicator: TA100; Metabolic Activation: RAT, LIVER, S-9; Method: PREINCUBATION
Activity calls are given as the source filed them. How the calls were made is not given here.
Outcome field: choose from label 1 for active, label 0 for inactive

Which outcome was assigned to CC(=O)[C@]1(O)Cc2c(O)c3c(c(O)c2[C@@H](O[C@H]2C[C@H](N)[C@H](OC(C[C@H](C)O)O[C@@H](C)C=O)[C@H](C)O2)C1)C(=O)c1c(O)cccc1C3=O (stereo partly specified) in this test? label 1

# repeat for "CCN(N=O)c1ccccc1" label 0

Try this molecule too: "c1ccc2ncccc2c1" label 1

And then "CCCCCC(=O)Cc1cc(O)cc2c1C(=O)Oc1cc(O)c(C(=O)O)c(CCCCC)c1O2" , what is it? label 0

Do the same for CC(O)CN(C)N=O (stereo unspecified) please label 1

// repeat for "COC1=CC=CC=CC1" and report label 0

Could you do the same for "Oc1cccc2ncccc12" , please? label 1

"Cc1c([N+](=O)[O-])c2ccccc2c2ccc3ccccc3c12" , same question. label 1

Let us now turn to "CC(=O)CN(CC(C)=O)N=O" label 1

Entry to check: "Cc1c(N)ccc(N=Nc2ccccc2)c1N" label 1

Try "CC(=O)N[C@@H]1[C@@H](O[C@@H]2O[C@H](C(=O)O)[C@@H](O[C@@H]3O[C@H](CO)[C@@H](O)[C@H](O[C@@H]4O[C@H](C(=O)O)[C@@H](O)[C@H](O)[C@H]4O)[C@H]3NC(C)=O)[C@H](O)[C@H]2O)[C@H](O)[C@@H](CO)O[C@H]1O" next. label 0

---

System: CCRIS mutagenicity, Ames/micronucleus/aberration tests
Experiment: CCRIS mutagenicity studies
Details: Test System: E.COLI; Strain/Indicator: WP2UVRA; Metabolic Activation: NONE; Method: PREINCUBATION
Activity calls are given as the source filed them. The rule behind the calls is not given here.
Your reply should match one of these outcome classes. 1.0 for active, 0.0 for inactive

Examples with answers:
Nc1cc(S(=O)(=O)O)cc2cc(S(=O)(=O)O)cc(O)c12 | 0.0
NNc1ccccc1 | 1.0
O=C1c2ccccc2C(=O)c2ccccc21 | 0.0
Cc1ccccc1Br | 0.0
O=Cc1ccc(O)cc1 | 0.0
c1ccc2cc(Nc3ccc(Nc4ccc5ccccc5c4)cc3)ccc2c1 | 0.0

Any idea what this test logged for "CC(=O)Nc1ccc(S(=O)(=O)Cl)cc1" ? 0.0

Would you mind doing "Nc1ccc(S(=O)(=O)O)c2ccccc12" as well? 0.0

---

Test system: CCRIS mutagenicity, Ames/micronucleus/aberration tests
Assay: CCRIS mutagenicity studies
Conditions: Test System: AMES SALMONELLA TYPHIMURIUM; Strain/Indicator: TA98; Metabolic Activation: NONE
Active and inactive are the calls of the source. No rule for the calls is given here.
measured.property: mutagenic call

Please review the following examples before continuing.
Oc1cccc(O)c1O | inactive; negative
C=CCOc1ccccc1OCC(O)CNC(C)C (stereo not drawn) | inactive; negative
Nc1ccccc1[N+](=O)[O-] | inactive; negative
C[As+](C)(C)CC(=O)[O-] | inactive; negative
CCN(CC)CC#CCOC(=O)C(O)(c1ccccc1)C1CCCCC1 (stereo not drawn) | inactive; negative

I would be grateful if you could share the reported mutagenic call for "O=[N+]([O-])c1ccc2c(c1)CCc1c-2ccc2c1CCCC2" . active; positive

Further, for "CCCCOC(=O)/C=C\C(=O)OCCCC" ? inactive; negative

One more molecule: "N[C@@H](CCC(=O)NNc1ccc(CO)cc1)C(=O)O" inactive; negative

Consider next the molecule "O=[N+]([O-])c1ccc2c3c(cccc13)-c1ccccc1-2" in the same way. active; positive

---

Tested on: CCRIS mutagenicity, Ames/micronucleus/aberration tests
Experiment: CCRIS mutagenicity studies
Conditions: Test System: AMES SALMONELLA TYPHIMURIUM; Strain/Indicator: TA2637; Metabolic Activation: RAT, LIVER, S-9, PHENOBARBITAL AND 5,6-BENZOFLAVONE; Method: PREINCUBATION
Calls of active or inactive are those of the source. No rule for the calls is given here.
Answer with one of the outcomes given here: 1 = active, 0 = inactive

Some entries whose results are on file:
CC1=CC(=O)C(C(C)C)=CC1=O | 0
O=C1C=C(Nc2ccccc2)C(=O)c2ccccc21 | 1
O=C1C=CC(=O)c2c(O)c(Cl)c(Cl)c(O)c21 | 1
O=C1C=CC(=O)c2ccccc21 | 1
O=c1ccc(=O)c2c(=O)c(Cl)c(Cl)c(=O)c1=2 | 1

Could you kindly confirm the outcome this assay logged for "COc1cc(OC)c2c(=O)c3cc(OC)ccc3oc2c1" ? 1

Could you do the same for "O=C1C=CC(=O)C=C1" , please? 0

Do the same for "O=C1C=CC(=O)C(c2ccccc2)=C1" please 0

---

Tested on: CCRIS mutagenicity, Ames/micronucleus/aberration tests
Test: CCRIS mutagenicity studies
Settings: Test System: AMES SALMONELLA TYPHIMURIUM; Strain/Indicator: TA98; Metabolic Activation: HAMSTER, LIVER, S-9, AROCLOR 1254 (30%); Method: PREINCUBATION
Activity calls are given as the source filed them. How the calls were made is not given here.
Response enum: y (active), n (inactive)

# fetch the recorded call for "Oc1c(I)cc(Cl)c2cccnc12" here n

---

Tested on: CCRIS mutagenicity, Ames/micronucleus/aberration tests
Assay: CCRIS mutagenicity studies
Settings: Test System: AMES SALMONELLA TYPHIMURIUM; Strain/Indicator: TA98; Metabolic Activation: NONE; Method: STANDARD PLATE
Activity calls are given as the source filed them. No rule for the calls is given here.
The reply should name one outcome from true (1) for active, false (0) for inactive

C1=CCCCC1 | false (0)
C#C[C@]1(O)CC[C@H]2[C@@H]3CCC4=C(CCC(=O)C4)[C@H]3CC[C@@]21C | false (0)
S=C1NCCN1 | false (0)
CC(C)CC(C)Nc1ccc(Nc2ccccc2)cc1 (configuration not stated) | false (0)
CCOC(=O)C1(CCCCCCOCc2cccs2)CO1 (configuration not stated) | true (1)
Nc1ccc(/C=C/c2ccc([N+](=O)[O-])cc2)cc1 | true (1)

Check the results log: what was the call for "Cc1ccc(C(O)(P(=O)(O)O)P(=O)(O)O)cc1N(CCCl)CCCl" ? false (0)

Can you check "COC(=O)c1cc2c(c3c1c([N+](=O)[O-])cc1c(OC)cccc13)OCO2" next? true (1)

Now consider "Cc1cn2c([N+](=O)[O-])c(-c3ccc([N+](=O)[O-])cc3)nc2s1" . true (1)

Can you check Cc1cccc(OCC(O)CNC(C)(C)C)c1C (configuration not stated) next? false (0)

For "Cn1c(N=[N+]=[N-])nc2ccccc21" then? true (1)

For "COc1cc(O)c2c(O)c3c(=O)oc(C)cc3c(OC)c2c1" then? true (1)

Cited source for all entries: PubChem BioAssay AID1259407
